Data origin, for the record: ChEMBL document CHEMBL3885861

- Organism: Rattus norvegicus
- protocol.summary: Open TG-GATES - Regimen: Daily Repeat
- Type: toxicity, organism-based, Sprague-Dawley
- Set-up: regimen Daily Repeat, gender Male, age 6 weeks
- run.parameters: in vivo, po, 0 mg/kg, […], route gavage, dose level Control, time 7 day
observable: TERMINAL_BW (g)

CC1=C(CC(=O)O)c2cc(F)ccc2/C1=C\c1ccc([S+](C)[O-])cc1 (stereo unspecified)    270.8
O=NN(CCCl)C(=O)NC1CCCCC1 [LOMUSTINE]    258.9
CCCCc1oc2ccccc2c1C(=O)c1cc(I)c(OCCN(CC)CC)c(I)c1 [AMIODARONE]    253.9
CN(C)CCC=C1c2ccccc2COc2ccccc21 [DOXEPIN]    255.5
CN(C)C(=N)N=C(N)N [METFORMIN]    255.4
CC(C)N(CCC(C(N)=O)(c1ccccc1)c1ccccn1)C(C)C (stereo unspecified) [DISOPYRAMIDE]    265.2
CC[C@H]1[C@@H]2C[C@H]3[C@@H]4N(C)c5ccccc5[C@]45C[C@@H]([C@@H]2[C@H]5O)N3[C@@H]1O [AJMALINE]    249.2
OCCOCCN1CCN(C(c2ccccc2)c2ccc(Cl)cc2)CC1 (stereo unspecified) [HYDROXYZINE]    263.6
ClC(Cl)(Cl)Cl [CARBON TETRACHLORIDE]    257
CCC1(c2ccccc2)C(=O)NC(=O)NC1=O [PHENOBARBITAL]    254.1
CCc1oc2ccccc2c1C(=O)c1cc(Br)c(O)c(Br)c1 [BENZBROMARONE]    262.9

###

- Organism: Rattus norvegicus
- protocol.summary: Open TG-GATES - Regimen: Daily Repeat
- Format: toxicity, organism-based, Sprague-Dawley
- Design: regimen Daily Repeat, gender Male, age 6 weeks
- run.parameters: in vivo, po, 0 mg/kg, 72 h, tissue Plasma, route gavage, dose level Control, time 3 day
Parameter: gamma-GTP. Scope: all listed entries.
observable: gamma-GTP (IU/L)

CC[C@H]1[C@@H]2C[C@H]3[C@@H]4N(C)c5ccccc5[C@]45C[C@@H]([C@@H]2[C@H]5O)N3[C@@H]1O    1.8
O=NN(CCCl)C(=O)NC1CCCCC1    2
CCc1oc2ccccc2c1C(=O)c1cc(Br)c(O)c(Br)c1    0.6
CCC1(c2ccccc2)C(=O)NC(=O)NC1=O    1.8
ClC(Cl)(Cl)Cl [CARBON TETRACHLORIDE]    1
CN(C)CCC=C1c2ccccc2COc2ccccc21 [DOXEPIN]    1.4

###

- Organism: Rattus norvegicus
- protocol.summary: Open TG-GATES - Regimen: Daily Repeat
- Type: toxicity, organism-based, Sprague-Dawley
- Set-up: regimen Daily Repeat, gender Male, age 6 weeks
- run.parameters: in vivo, po, 0 mg/kg, […], tissue Blood, route gavage, dose level Control, time 7 day
Parameter: Plat. Scope: all listed entries.
observable: Plat (x10_4/uL)

CC(C)N(CCC(C(N)=O)(c1ccccc1)c1ccccn1)C(C)C (stereo unspecified) [DISOPYRAMIDE]    116.2
CCc1oc2ccccc2c1C(=O)c1cc(Br)c(O)c(Br)c1    113.2
CN(C)CCC=C1c2ccccc2COc2ccccc21 [DOXEPIN]    116.5
OCCOCCN1CCN(C(c2ccccc2)c2ccc(Cl)cc2)CC1 (stereo unspecified) [HYDROXYZINE]    113.3
CCC1(c2ccccc2)C(=O)NC(=O)NC1=O    110.9
CN(C)C(=N)N=C(N)N    126.8
CCCCc1oc2ccccc2c1C(=O)c1cc(I)c(OCCN(CC)CC)c(I)c1    117.4
O=NN(CCCl)C(=O)NC1CCCCC1    107.5
CC1=C(CC(=O)O)c2cc(F)ccc2/C1=C\c1ccc([S+](C)[O-])cc1 (stereo unspecified)    131.7
CC[C@H]1[C@@H]2C[C@H]3[C@@H]4N(C)c5ccccc5[C@]45C[C@@H]([C@@H]2[C@H]5O)N3[C@@H]1O    125.7
ClC(Cl)(Cl)Cl [CARBON TETRACHLORIDE]    129.8

###

- Species on record: Rattus norvegicus
- protocol.summary: Open TG-GATES - Regimen: Daily Repeat
- Format: toxicity, organism-based, Sprague-Dawley
- Set-up: regimen Daily Repeat, gender Male, age 6 weeks
- run.parameters: in vivo, po, 0 mg/kg, 72 h, tissue Blood, route gavage, dose level Control, time 3 day
Parameter: Plat. Scope: all listed entries.
observable: Plat (x10_4/uL)

CC[C@H]1[C@@H]2C[C@H]3[C@@H]4N(C)c5ccccc5[C@]45C[C@@H]([C@@H]2[C@H]5O)N3[C@@H]1O [AJMALINE]    115.1
O=NN(CCCl)C(=O)NC1CCCCC1 [LOMUSTINE]    108.6
CCc1oc2ccccc2c1C(=O)c1cc(Br)c(O)c(Br)c1 [BENZBROMARONE]    111.1
OCCOCCN1CCN(C(c2ccccc2)c2ccc(Cl)cc2)CC1 (stereo unspecified) [HYDROXYZINE]    117.4
CN(C)C(=N)N=C(N)N [METFORMIN]    121.6
CC1=C(CC(=O)O)c2cc(F)ccc2/C1=C\c1ccc([S+](C)[O-])cc1 (stereo unspecified)    126.4
CCCCc1oc2ccccc2c1C(=O)c1cc(I)c(OCCN(CC)CC)c(I)c1 [AMIODARONE]    122.3
ClC(Cl)(Cl)Cl [CARBON TETRACHLORIDE]    129.5
CCC1(c2ccccc2)C(=O)NC(=O)NC1=O [PHENOBARBITAL]    126.6
CN(C)CCC=C1c2ccccc2COc2ccccc21 [DOXEPIN]    122.6
CC(C)N(CCC(C(N)=O)(c1ccccc1)c1ccccn1)C(C)C (stereo unspecified) [DISOPYRAMIDE]    130.4

###

- Species on record: Rattus norvegicus
- protocol.summary: Open TG-GATES - Regimen: Daily Repeat
- Assay type: toxicity, organism-based, Sprague-Dawley
- Set-up: regimen Daily Repeat, gender Male, age 6 weeks
- run.parameters: in vivo, po, 0 mg/kg, […], tissue Kidney, route gavage, dose level Control, time 7 day
Parameter: KIDNEY_R. Scope: all listed entries.
observable: KIDNEY_R (g)

OCCOCCN1CCN(C(c2ccccc2)c2ccc(Cl)cc2)CC1 (stereo unspecified) [HYDROXYZINE]    1.1
CC1=C(CC(=O)O)c2cc(F)ccc2/C1=C\c1ccc([S+](C)[O-])cc1 (stereo unspecified)    1.1
CC(C)N(CCC(C(N)=O)(c1ccccc1)c1ccccn1)C(C)C (stereo unspecified) [DISOPYRAMIDE]    1.1
CCc1oc2ccccc2c1C(=O)c1cc(Br)c(O)c(Br)c1    1.2
CN(C)CCC=C1c2ccccc2COc2ccccc21 [DOXEPIN]    1.1
ClC(Cl)(Cl)Cl [CARBON TETRACHLORIDE]    1
CC[C@H]1[C@@H]2C[C@H]3[C@@H]4N(C)c5ccccc5[C@]45C[C@@H]([C@@H]2[C@H]5O)N3[C@@H]1O    1.1
CCC1(c2ccccc2)C(=O)NC(=O)NC1=O    1
O=NN(CCCl)C(=O)NC1CCCCC1    1.1
CN(C)C(=N)N=C(N)N    1
CCCCc1oc2ccccc2c1C(=O)c1cc(I)c(OCCN(CC)CC)c(I)c1    1.1

###

- Organism: Rattus norvegicus
- protocol.summary: Open TG-GATES - Regimen: Daily Repeat
- Type: toxicity, organism-based, Sprague-Dawley
- Parameters: regimen Daily Repeat, gender Male, age 6 weeks
- run.parameters: in vivo, po, 0 mg/kg, […], tissue Plasma, route gavage, dose level Control, time 14 day
observable: BUN (mg/dL)

O=NN(CCCl)C(=O)NC1CCCCC1    20.2
OCCOCCN1CCN(C(c2ccccc2)c2ccc(Cl)cc2)CC1 (stereo unspecified) [HYDROXYZINE]    16.2
CC[C@H]1[C@@H]2C[C@H]3[C@@H]4N(C)c5ccccc5[C@]45C[C@@H]([C@@H]2[C@H]5O)N3[C@@H]1O    20.6
CN(C)CCC=C1c2ccccc2COc2ccccc21 [DOXEPIN]    18
CCC1(c2ccccc2)C(=O)NC(=O)NC1=O    19
CCc1oc2ccccc2c1C(=O)c1cc(Br)c(O)c(Br)c1    18.2
CN(C)C(=N)N=C(N)N    16.4
ClC(Cl)(Cl)Cl [CARBON TETRACHLORIDE]    14
CC1=C(CC(=O)O)c2cc(F)ccc2/C1=C\c1ccc([S+](C)[O-])cc1 (stereo unspecified)    17.8
CCCCc1oc2ccccc2c1C(=O)c1cc(I)c(OCCN(CC)CC)c(I)c1    16.6
CC(C)N(CCC(C(N)=O)(c1ccccc1)c1ccccn1)C(C)C (stereo unspecified) [DISOPYRAMIDE]    18.6
